# TARGET OR SYSTEM: T1, huNav1.7α+β1-β2-β3 (human, UniProt Q15858 1-1988; Q07699 19-218; O60939 30-215; Q9NY72 23-215)
# T1 construct: 5N11S variant; also called huNav1.7-beta1-beta2-beta3; huNav1.7α+Navβ1-Navβ2-Navβ3
# PROCEDURE TEXT: binding FACS, CHO FlpIn cells
pEC50: −log10 of the molar value.
PARAMETER MEASURED: pEC50

1) F010301560 (VHH, vs 387G05: D53G, D54G, D58G) VHH: EVQLVESGGGLVQAGGSLRLSCDASGRILRIGYMRWHRQGAGKQREFVARITGGSATGYADSVKGRFTISRDNAKNTVYLQMNNLNPEDTAVYYCEALVTASVRGGSIHSGTYWGRGTLVTVSS; 8.68
2) F010301559 (VHH, vs 387G05: D23A, D54G, D58G) VHH: EVQLVESGGGLVQAGGSLRLSCAASGRILRIGYMRWHRQGAGKQREFVARITDGSATGYADSVKGRFTISRDNAKNTVYLQMNNLNPEDTAVYYCEALVTASVRGGSIHSGTYWGRGTLVTVSS; 8.74
3) F010301558 (VHH, vs 387G05: D23A, D53G, D58G) VHH: EVQLVESGGGLVQAGGSLRLSCAASGRILRIGYMRWHRQGAGKQREFVARITGDSATGYADSVKGRFTISRDNAKNTVYLQMNNLNPEDTAVYYCEALVTASVRGGSIHSGTYWGRGTLVTVSS; 8.74
4) F010301409 (VHH, vs 387G05: H100fV) VHH: EVQLVESGGGLVQAGGSLRLSCDASGRILRIGYMRWHRQGAGKQREFVARITDDSATDYADSVKGRFTISRDNAKNTVYLQMNNLNPEDTAVYYCEALVTASVRGGSIVSGTYWGRGTLVTVSS; 8.29
5) F010301360 (VHH, vs 387G05: A56T) VHH: EVQLVESGGGLVQAGGSLRLSCDASGRILRIGYMRWHRQGAGKQREFVARITDDSTTDYADSVKGRFTISRDNAKNTVYLQMNNLNPEDTAVYYCEALVTASVRGGSIHSGTYWGRGTLVTVSS; 8.28

P: F010301387 (VHH, vs 387G05: V100A) VHH: EVQLVESGGGLVQAGGSLRLSCDASGRILRIGYMRWHRQGAGKQREFVARITDDSATDYADSVKGRFTISRDNAKNTVYLQMNNLNPEDTAVYYCEALVTASARGGSIHSGTYWGRGTLVTVSS
Q: F010301556 (VHH, also called F0103387G05(D23A, D53G, D54G, D58G)) VHH: EVQLVESGGGLVQAGGSLRLSCAASGRILRIGYMRWHRQGAGKQREFVARITGGSATGYADSVKGRFTISRDNAKNTVYLQMNNLNPEDTAVYYCEALVTASVRGGSIHSGTYWGRGTLVTVSS
Pick one, P or Q : lowest reported pEC50. Respond using the label that marks the chosen record.
P
(P: 8.28, Q: 8.64)
